Target: cAMP-dependent protein kinase A (Bos taurus, UniProt P00515+P00517+P05131+P31322)
Assay: Inhibition of Protein kinase A (PKA) activity, Enzyme assay was done using gamma-[32P]ATP and synthetic peptide substrates
Format: protein-complex assay
readout: IC50

COc1ccc(S(=O)(=O)N(CCO)c2ccccc2CN(C)C/C=C/c2ccc(Cl)cc2)cc1 :: > 100 µM

Input: Given the entry N=c1cc2c(nn1CCCCCCCCCCC(=O)N1CCN(c3ncccn3)CC1)-c1ccccc1CC2 , report its measured IC50.
Output: > 100 µM

###

Biological target: Myosin light chain kinase, smooth muscle (Gallus gallus, UniProt P11799)
Sequence (P11799 whole entry): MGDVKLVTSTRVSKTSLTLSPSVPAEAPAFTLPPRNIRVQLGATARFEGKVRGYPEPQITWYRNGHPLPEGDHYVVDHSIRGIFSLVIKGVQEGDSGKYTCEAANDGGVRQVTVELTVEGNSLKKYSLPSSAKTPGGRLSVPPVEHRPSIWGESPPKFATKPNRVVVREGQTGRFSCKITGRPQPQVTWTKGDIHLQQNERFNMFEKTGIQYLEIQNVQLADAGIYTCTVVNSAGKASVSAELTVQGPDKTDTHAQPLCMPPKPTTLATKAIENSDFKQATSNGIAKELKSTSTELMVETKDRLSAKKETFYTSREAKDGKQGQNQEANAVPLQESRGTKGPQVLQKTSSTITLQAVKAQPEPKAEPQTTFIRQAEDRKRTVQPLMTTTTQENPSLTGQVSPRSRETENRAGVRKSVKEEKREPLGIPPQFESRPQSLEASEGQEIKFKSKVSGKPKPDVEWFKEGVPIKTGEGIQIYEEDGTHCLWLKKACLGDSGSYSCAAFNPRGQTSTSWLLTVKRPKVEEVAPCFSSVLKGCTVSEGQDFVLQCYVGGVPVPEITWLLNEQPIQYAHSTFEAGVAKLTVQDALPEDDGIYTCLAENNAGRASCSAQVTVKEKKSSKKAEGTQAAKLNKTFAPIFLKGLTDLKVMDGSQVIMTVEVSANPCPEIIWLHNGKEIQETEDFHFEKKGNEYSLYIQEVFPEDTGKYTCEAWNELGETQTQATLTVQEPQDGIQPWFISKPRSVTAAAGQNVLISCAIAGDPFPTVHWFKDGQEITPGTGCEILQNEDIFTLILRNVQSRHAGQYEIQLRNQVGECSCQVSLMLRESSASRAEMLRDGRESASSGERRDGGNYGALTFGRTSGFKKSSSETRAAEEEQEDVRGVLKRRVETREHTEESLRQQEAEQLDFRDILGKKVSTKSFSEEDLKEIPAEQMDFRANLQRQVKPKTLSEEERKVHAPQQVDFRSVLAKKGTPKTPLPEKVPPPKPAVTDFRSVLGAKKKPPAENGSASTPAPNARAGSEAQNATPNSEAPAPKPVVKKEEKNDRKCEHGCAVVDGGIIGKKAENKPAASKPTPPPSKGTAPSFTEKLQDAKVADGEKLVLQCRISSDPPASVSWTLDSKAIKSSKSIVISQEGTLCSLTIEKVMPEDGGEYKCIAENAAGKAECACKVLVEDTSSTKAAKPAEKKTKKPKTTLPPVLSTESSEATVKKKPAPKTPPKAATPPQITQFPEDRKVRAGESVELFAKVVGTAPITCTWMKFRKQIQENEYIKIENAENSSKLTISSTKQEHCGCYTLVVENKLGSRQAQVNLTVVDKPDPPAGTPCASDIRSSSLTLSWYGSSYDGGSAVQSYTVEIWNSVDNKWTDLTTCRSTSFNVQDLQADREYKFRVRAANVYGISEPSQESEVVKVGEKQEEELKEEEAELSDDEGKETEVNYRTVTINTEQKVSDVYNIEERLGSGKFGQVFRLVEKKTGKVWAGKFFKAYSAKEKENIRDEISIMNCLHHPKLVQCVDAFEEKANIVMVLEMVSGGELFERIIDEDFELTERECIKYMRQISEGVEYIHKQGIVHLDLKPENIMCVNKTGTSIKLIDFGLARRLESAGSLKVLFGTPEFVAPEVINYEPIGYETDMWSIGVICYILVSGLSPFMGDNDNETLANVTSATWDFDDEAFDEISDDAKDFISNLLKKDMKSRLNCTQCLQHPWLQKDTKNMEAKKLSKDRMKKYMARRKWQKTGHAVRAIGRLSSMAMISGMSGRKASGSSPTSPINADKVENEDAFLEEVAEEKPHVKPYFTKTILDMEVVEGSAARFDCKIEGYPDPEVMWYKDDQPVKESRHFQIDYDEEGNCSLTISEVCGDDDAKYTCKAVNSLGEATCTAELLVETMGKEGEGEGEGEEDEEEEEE
readout: IC50

Input: Query (molecule): N=c1cc2c(nn1CCCCCCCCCCC(=O)N1CCN(c3ncccn3)CC1)-c1ccccc1CC2 ; field requested: IC50
Output: > 100 µM

Data provenance: ChEMBL document CHEMBL1135701
